study.system: sites opioides de type µ (Oryctolagus cuniculus, UniProt G1TAQ8)
Construct: fraction membranaire brute obtenue à partir de tissu frais (cervelet de lapin, cervelet de cobaye); from tissue; host or cells: rabbit cerebellum (New Zealand rabbits), crude membrane fraction
protocol.text: [3H]diprenorphine competition binding, crude membrane fraction of rabbit cerebellum
Set-up: species or system lapin
condition.set: calculated from the measured CI.50; rabbit cerebellum membranes; read-out: KIµ (constante de dissociation apparente du composé testé)
Task for the reader: assign each of the following compounds its reported Ki.
Numbers only, in nM.

# compound, measurement.label, unit.abbreviation, observed.result
measured = [
    ("O=C1CC[C@@]2(O)[C@H]3Cc4ccc(OP(=O)(O)O)c5c4[C@@]2(CCN3CC2CC2)[C@H]1O5 [naltrexone-3-phosphate]", "Ki", "nM", 5.6),
    ("C=CCN1CC[C@]23c4c5ccc(OP(=O)(O)OP(=O)(O)OP(=O)(O)O)c4O[C@H]2C(=O)CC[C@@]3(O)[C@H]1C5 [naloxone-3-triphopshate]", "Ki", "nM", 5.2),
]

(Q) Which Ki reading was recorded for the compound O=C1CC[C@@]2(OS(=O)(=O)O)[C@H]3Cc4ccc(OS(=O)(=O)O)c5c4[C@@]2(CCN3CC2CC2)[C@H]1O5 [naltrexone-3,14-disulfate] ?
(A) 1960

* * *

study.system: sites opioides de type µ (Oryctolagus cuniculus, UniProt G1TAQ8)
Construct: fraction membranaire brute obtenue à partir de tissu frais (cervelet de lapin, cervelet de cobaye); from tissue; host or cells: rabbit cerebellum (New Zealand rabbits), crude membrane fraction
protocol.text: [3H]diprenorphine competition binding, crude membrane fraction of rabbit cerebellum
Design: species or system lapin
condition.set: [3H]diprenorphine 0,3 nM, rabbit cerebellum membranes, 1 h at 25°C; (n) in brackets; read-out: I50µ (concentration inhibitrice 50)
measurement.label: IC50 (nM)
One number for each entry, in nM.

# compound, observed.result
data = [
    ("C=CCN1CC[C@]23c4c5ccc(OP(=O)(O)OP(=O)(O)OP(=O)(O)O)c4O[C@H]2C(=O)CC[C@@]3(O)[C@H]1C5 [naloxone-3-triphopshate]", 21),
]

For each listed entry, give its IC50.
1. O=C1CC[C@@]2(O)[C@H]3Cc4ccc(OP(=O)(O)OP(=O)(O)OP(=O)(O)O)c5c4[C@@]2(CCN3CC2CC2)[C@H]1O5 [naltrexone-3-triphosphate]
2. C=CCN1CC[C@]23c4c5ccc(OP(=O)(O)O)c4O[C@H]2C(=O)CC[C@@]3(O)[C@H]1C5 [naloxone-3-phosphate]
3. C=CCN1CC[C@]23c4c5ccc(OS(=O)(=O)O)c4O[C@H]2C(=O)CC[C@@]3(OS(=O)(=O)O)[C@H]1C5 [naloxone-3,14-disulfate]

(A)
1. 5.2
2. 3.5
3. 20800

* * *

log10 IC50, sites opioides de type k (Cavia porcellus): measured values
// units: nM (pre-log); metric: IC50; scale: log10

# molecule, log10 IC50
data = [
    ("O=C1CC[C@@]2(O)[C@H]3Cc4ccc(OP(=O)(O)O)c5c4[C@@]2(CCN3CC2CC2)[C@H]1O5 [naltrexone-3-phosphate]", 1.48),
    ("COP(=O)(O)Oc1ccc2c3c1O[C@H]1C(=O)CC[C@@]4(O)[C@@H](C2)N(CC2CC2)CC[C@]314 [naltrexone-3-phosphate(OMe)]", 2.43),
    ("C=CCN1CC[C@]23c4c5ccc(OP(=O)(O)OP(=O)(O)OP(=O)(O)O)c4O[C@H]2C(=O)CC[C@@]3(O)[C@H]1C5 [naloxone-3-triphopshate]", 2.03),
    ("O=C1CC[C@@]2(O)[C@H]3Cc4ccc(OS(=O)(=O)O)c5c4[C@@]2(CCN3CC2CC2)[C@H]1O5 [naltrexone-3-sulfate]", 3.34),
    ("O=C1CC[C@@]2(OS(=O)(=O)O)[C@H]3Cc4ccc(OS(=O)(=O)O)c5c4[C@@]2(CCN3CC2CC2)[C@H]1O5 [naltrexone-3,14-disulfate]", 4.59),
]

(Q) Consider the molecule O=C1CC[C@@]2(O)[C@H]3Cc4ccc(OP(=O)(O)OP(=O)(O)OP(=O)(O)O)c5c4[C@@]2(CCN3CC2CC2)[C@H]1O5 [naltrexone-3-triphosphate] and give its measured log10 IC50.
(A) 1.18

* * *

protocol.text: Stability in haemolysate
Format: in vitro ADME
Design: key: + : stable.; *a: * : stabilité dans le sérum frais à 37°C au bout de 24h : on ne retrouve que 8 à 12%, 78% et 65% de la quantité de départ dans le sérum respectivement pour (a), (b) et (c).; *b: * : stabilité dans le sérum frais à 37°C au bout de 24h : on ne retrouve que 8 à 12%, 78% et 65% de la quantité de départ dans le sérum respectivement pour (a), (b) et (c).; *c: * : stabilité dans le sérum frais à 37°C au bout de 24h : on ne retrouve que 8 à 12%, 78% et 65% de la quantité de départ dans le sérum respectivement pour (a), (b) et (c)
condition.set: 4°C

# molecule, Stabilité dans hémolysat 4°C
records = [
    ("O=C1CC[C@@]2(O)[C@H]3Cc4ccc(OP(=O)(O)O)c5c4[C@@]2(CCN3CC2CC2)[C@H]1O5 [naltrexone-3-phosphate]", "+"),
    ("C=CCN1CC[C@]23c4c5ccc(OS(=O)(=O)O)c4O[C@H]2C(=O)CC[C@@]3(OS(=O)(=O)O)[C@H]1C5 [naloxone-3,14-disulfate]", "+"),
    ("C=CCN1CC[C@]23c4c5ccc(OP(=O)(O)OP(=O)(O)OP(=O)(O)O)c4O[C@H]2C(=O)CC[C@@]3(O)[C@H]1C5 [naloxone-3-triphopshate]", "+"),
]

* * *

protocol.text: Stability in haemolysate
Format: in vitro ADME
Parameters: key: + : stable.; *a: * : stabilité dans le sérum frais à 37°C au bout de 24h : on ne retrouve que 8 à 12%, 78% et 65% de la quantité de départ dans le sérum respectivement pour (a), (b) et (c).; *b: * : stabilité dans le sérum frais à 37°C au bout de 24h : on ne retrouve que 8 à 12%, 78% et 65% de la quantité de départ dans le sérum respectivement pour (a), (b) et (c).; *c: * : stabilité dans le sérum frais à 37°C au bout de 24h : on ne retrouve que 8 à 12%, 78% et 65% de la quantité de départ dans le sérum respectivement pour (a), (b) et (c)
condition.set: 4°C
measurement.label: Stabilité dans hémolysat 4°C

Would you please look over these solved cases?
# compound, measurement.label, observed.result
data = [
    ("COP(=O)(O)Oc1ccc2c3c1O[C@H]1C(=O)CC[C@@]4(O)[C@@H](C2)N(CC2CC2)CC[C@]314 [naltrexone-3-phosphate(OMe)]", "Stabilité dans hémolysat 4°C", "+"),
    ("C=CCN1CC[C@]23c4c5ccc(OP(=O)(O)O)c4O[C@H]2C(=O)CC[C@@]3(O)[C@H]1C5 [naloxone-3-phosphate]", "Stabilité dans hémolysat 4°C", "+"),
    ("C=CCN1CC[C@]23c4c5ccc(OP(=O)(O)OC)c4O[C@H]2C(=O)CC[C@@]3(O)[C@H]1C5 [naloxone-3-phosphate(OMe)]", "Stabilité dans hémolysat 4°C", "+"),
    ("O=C1CC[C@@]2(O)[C@H]3Cc4ccc(OP(=O)(O)OP(=O)(O)OP(=O)(O)O)c5c4[C@@]2(CCN3CC2CC2)[C@H]1O5 [naltrexone-3-triphosphate]", "Stabilité dans hémolysat 4°C", "+"),
]

Alright, here's another compound for you.
(Q) Give the measured Stabilité dans hémolysat 4°C of O=C1CC[C@@]2(OS(=O)(=O)O)[C@H]3Cc4ccc(OS(=O)(=O)O)c5c4[C@@]2(CCN3CC2CC2)[C@H]1O5 [naltrexone-3,14-disulfate] .
(A) +
